target: Protein kinase C beta type (Homo sapiens) (UniProt P05771); conditions: at 1 µM;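 note: mean inhibition value, enzyme form tested was the PKC-beta1 splice variant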
Sequence (P05771 2-671 limits assumed): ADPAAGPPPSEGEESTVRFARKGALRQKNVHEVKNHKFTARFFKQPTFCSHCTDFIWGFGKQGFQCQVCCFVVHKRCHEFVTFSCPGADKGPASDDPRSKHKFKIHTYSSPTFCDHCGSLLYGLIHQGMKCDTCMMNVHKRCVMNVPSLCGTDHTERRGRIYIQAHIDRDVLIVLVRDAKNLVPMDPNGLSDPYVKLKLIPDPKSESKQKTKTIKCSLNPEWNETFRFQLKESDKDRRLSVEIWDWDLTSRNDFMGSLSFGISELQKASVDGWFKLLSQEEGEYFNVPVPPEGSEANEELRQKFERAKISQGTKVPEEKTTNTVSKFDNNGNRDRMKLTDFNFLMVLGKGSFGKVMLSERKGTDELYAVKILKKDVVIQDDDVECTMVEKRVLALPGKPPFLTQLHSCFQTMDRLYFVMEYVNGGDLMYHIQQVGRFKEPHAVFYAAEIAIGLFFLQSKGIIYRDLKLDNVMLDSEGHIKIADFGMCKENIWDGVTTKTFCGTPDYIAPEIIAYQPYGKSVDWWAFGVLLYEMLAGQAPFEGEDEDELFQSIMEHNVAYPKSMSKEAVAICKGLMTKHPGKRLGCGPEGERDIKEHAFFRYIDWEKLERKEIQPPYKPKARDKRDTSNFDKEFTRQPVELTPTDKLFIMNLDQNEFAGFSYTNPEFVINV
Description: GSK_PKIS: PKC-beta1 (splice variant) mean inhibition at 1 uM [Nanosyn]
Listed here are compounds together with their documented inhibition.
ENDPOINT LABEL: inhibition (%)

compound=CCS(=O)(=O)c1ccc(OC)c(Nc2ncc(-c3cccc(-c4ccccc4F)c3)o2)c1 experimental_system="Protein kinase C beta type (Homo sapiens) (UniProt P05771)" numeric_result=0.3
compound=CCc1nccc2c1nc(-c1nonc1N)n2CC experimental_system="Protein kinase C beta type (Homo sapiens) (UniProt P05771)" numeric_result=20
compound=NC(=O)c1ccc(Oc2nccc(-c3c(-c4ccc(F)cc4)ncn3C3CCNCC3)n2)cc1 experimental_system="Protein kinase C beta type (Homo sapiens) (UniProt P05771)" numeric_result=5.96
compound=O=C(Nc1n[nH]c2cc(-c3cc(F)ccc3F)ccc12)C1CC1 experimental_system="Protein kinase C beta type (Homo sapiens) (UniProt P05771)" numeric_result=2.04
compound=COc1ccc(C2=C(N3CCc4ccccc43)C(=O)NC2=O)cc1 experimental_system="Protein kinase C beta type (Homo sapiens) (UniProt P05771)" numeric_result=2.88
compound=C[C@@H](Oc1cc(-n2cnc3ccc(OC4CCN(C)CC4)cc32)sc1C(N)=O)c1ccccc1Cl experimental_system="Protein kinase C beta type (Homo sapiens) (UniProt P05771)" numeric_result=3.55
compound=NS(=O)(=O)c1ccc(N/N=C2\C(=O)Nc3ccc(-c4cnco4)cc32)cc1 experimental_system="Protein kinase C beta type (Homo sapiens) (UniProt P05771)" numeric_result=0.36
compound=O=C(Nc1n[nH]c2cc(-c3ccccc3)ccc12)C1CC1 experimental_system="Protein kinase C beta type (Homo sapiens) (UniProt P05771)" numeric_result=4.47
compound=Fc1ccc(-c2c(-c3ccncc3)nc3n2CCS3)cc1 experimental_system="Protein kinase C beta type (Homo sapiens) (UniProt P05771)" numeric_result=15.9
compound="COc1ccc2cc(-c3c(-c4ccncc4)nc(-c4ccc([S+](C)[O-])cc4C)n3C)ccc2c1 (configuration not stated)" experimental_system="Protein kinase C beta type (Homo sapiens) (UniProt P05771)" numeric_result=13
compound=COc1cccc(/C=N/Nc2ncnc3c2cnn3-c2cccc(OC)c2)c1 experimental_system="Protein kinase C beta type (Homo sapiens) (UniProt P05771)" numeric_result=0.85
compound=Clc1ccc(CNc2nccc(-c3cnn4ncccc34)n2)cc1 experimental_system="Protein kinase C beta type (Homo sapiens) (UniProt P05771)" numeric_result=1.03

====

target: Tyrosine-protein kinase Yes (Homo sapiens) (UniProt P07947); settings: at 1 µM;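 note: values are mean percent inhibition of YES kinase activity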
Sequence (P07947 2-543 limits assumed): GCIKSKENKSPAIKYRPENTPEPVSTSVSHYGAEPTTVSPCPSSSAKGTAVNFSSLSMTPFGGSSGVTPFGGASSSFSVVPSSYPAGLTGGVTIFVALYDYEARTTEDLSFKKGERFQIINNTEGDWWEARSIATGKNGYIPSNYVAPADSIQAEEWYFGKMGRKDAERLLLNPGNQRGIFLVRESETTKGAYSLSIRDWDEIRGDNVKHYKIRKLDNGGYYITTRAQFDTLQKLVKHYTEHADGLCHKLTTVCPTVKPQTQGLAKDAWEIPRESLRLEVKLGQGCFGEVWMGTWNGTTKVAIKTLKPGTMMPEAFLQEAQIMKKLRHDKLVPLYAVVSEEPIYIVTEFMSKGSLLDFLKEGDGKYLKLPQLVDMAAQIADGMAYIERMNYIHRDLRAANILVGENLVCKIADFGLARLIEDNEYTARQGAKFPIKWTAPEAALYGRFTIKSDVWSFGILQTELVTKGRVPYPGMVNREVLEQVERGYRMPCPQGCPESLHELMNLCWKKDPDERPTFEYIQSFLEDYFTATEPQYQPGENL
Listed here are compounds together with their documented inhibition.
ENDPOINT LABEL: inhibition

compound=CCN(CC)Cc1ccc(Nc2nccc(-c3cnn4ncccc34)n2)cc1 endpoint_label=inhibition result=22.5%
compound=COc1ccc(C2=C(N3CCc4ccccc43)C(=O)NC2=O)cc1 endpoint_label=inhibition result=5.12%
compound=CCS(=O)(=O)c1ccc(OC)c(Nc2ncc(-c3cccc(-c4ccccc4F)c3)o2)c1 endpoint_label=inhibition result=73%
compound=Cc1ccc(C(=O)NC(C)C)cc1-c1ccc(C(=O)NCC2CC2)cc1 endpoint_label=inhibition result=-0.56%
compound="Nc1nccc(-c2c(-c3ccc(F)cc3)ncn2C2CCC(O)CC2)n1 (stereo not drawn)" endpoint_label=inhibition result=40%
compound=COc1cc(Nc2ncc3c(C)nc(-c4cccc(Oc5ccccc5)c4)n3n2)cc(OC)c1OC endpoint_label=inhibition result=7.34%
compound=CCC(=O)Nc1ccc(C)c(-c2ccc(C(=O)NCC3CC3)cc2)c1 endpoint_label=inhibition result=4.01%
compound=C[C@@H](Oc1cc(-n2cnc3ccc(OCC4CCN(C)CC4)cc32)sc1C(N)=O)c1ccccc1Cl endpoint_label=inhibition result=15.5%

Origin of the recorded values: ChEMBL document CHEMBL1961873
